- ASSAY_SYSTEM: T1, mouse RBPJ R91G, conserved core (residues 53-474) (mouse, UniProt P31266 53-474, R91G)
- T1 construct: RBPJ (Rbpj), mouse, conserved core, residues 53-474, with R91G; Variant found in human AOS patients (human R65G), put into the mouse protein by mutagenesis; also called analogous to human R65G; source: pGEX-6P-1 plasmid, QuikChange mutagenesis
- T1 sequence (P31266 53-474 R91G): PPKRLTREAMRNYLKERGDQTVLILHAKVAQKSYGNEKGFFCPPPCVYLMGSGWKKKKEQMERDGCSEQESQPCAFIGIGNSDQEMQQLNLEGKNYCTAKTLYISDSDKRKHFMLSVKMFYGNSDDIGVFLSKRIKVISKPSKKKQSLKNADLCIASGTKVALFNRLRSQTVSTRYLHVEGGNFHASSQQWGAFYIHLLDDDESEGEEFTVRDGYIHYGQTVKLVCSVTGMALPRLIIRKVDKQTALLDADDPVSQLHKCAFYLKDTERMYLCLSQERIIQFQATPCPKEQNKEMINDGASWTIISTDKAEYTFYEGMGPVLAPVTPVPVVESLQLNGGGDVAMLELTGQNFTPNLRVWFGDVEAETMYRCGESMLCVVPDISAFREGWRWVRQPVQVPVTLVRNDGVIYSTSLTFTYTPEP
- ASSAY_INFO: ITC; MicroCal VP-ITC, 25 °C, 50 mM sodium phosphate pH 6.5, 150 mM NaCl; ligand (RAM peptide or SMT3-SHARP) in the syringe, RBPJ in the cell: 100 µM into 10 µM (R91G), 50 µM into 5 µM (F92V), 40 µM into 4 µM (S358R); 20 injections of 14 µL; 1-site binding model; mean and SD of triplicates
- RUN_CONDITIONS: both partners purified
PROPERTY_NAME: Kd (nM)

INSERT INTO assay_data (binder, property_name, display_unit, measured_number) VALUES
  ('VLLSRKRRRQHGQLWFPEGFKVSEASKK (NOTCH1, human, RAM domain of the intracellular domain, residues 1754-1781; also called NICD; NICD1; source: synthetic peptide)', 'Kd', 'nM', 21.4);
